Data origin, for the record: PubChem BioAssay (NCI)

procedure.text: NCI Yeast Anticancer Drug Screen. Data for the bub3 strain (AID 167)
assay.conditions: S. cerevisiae bub3 mutant strain, at 50.0 µM, hits give high values
About 79,000 compounds went through this panel and 15% of them were active in at least one assay; those are over-represented in the sample as a whole.
Kindly supply the reported growth inhibition values for the records listed here.
Give the value, in units of %, as a plain number.

[in] Fill in: growth inhibition of CC1(C)CC2(C)OC3(C)CC(C)(C)OC3(C)OC2(C)O1 (configuration not stated) is ___
[out] 22.4

[in] Also `COc1ccc(CCNC(=O)CCc2ccccc2CO)cc1OC` ?
[out] -39.2

[in] Also `CC(=C/C=C/C=C(C)\C=C\C=C(\C)C(=O)O)/C=C/C=C(/C)C(=O)O` ?
[out] 16.4

[in] Also CC(=O)CC(=O)N1CCCC(C)C1 (configuration not stated) ?
[out] -10.9

[in] Also `CCOC(=O)C(CCC(C)=O)C(=O)OCC` ?
[out] 5.65

[in] Also `CC(=O)OCc1cc(=O)n2c([nH]c3ccccc32)c1C#N` ?
[out] -26.3

[in] Also `CCC/C=C(/C=N/Nc1ccc([N+](=O)[O-])cc1[N+](=O)[O-])CC` ?
[out] 0.75

[in] Also `O=C(O)/C=C/C(=O)Nc1cccc(C(F)(F)F)c1` ?
[out] -15.7

[in] Also `C[N+](C)=c1ccc2nc3ccc(N)cc3sc-2c1` ?
[out] -79.8

[in] Also O=C(OC1CCC(c2ccccc2)C1)c1cc([N+](=O)[O-])cc([N+](=O)[O-])c1 (configuration not stated) ?
[out] 44.3

[in] Also `CCC(=O)NCCCCCN1CCCCC1` ?
[out] -1.1

[in] Also CN(CC(C)(C)C(O)c1ccccc1)C(=O)c1ccccc1 (configuration not stated) ?
[out] 8.2

[in] Also `CCCCCCCCCCCCCCCc1cc(OC)ccc1S(=O)(=O)O` ?
[out] 3.1

[in] Also CC(C)(C)N/N=C(\C(=O)Nc1cccc(Cl)c1)C1C(=O)Nc2ccccc2S1=O (configuration not stated) ?
[out] -11.2

[in] Also `CCCCCCCCCSc1nc2ccc(N=Cc3ccccc3O)cc2s1` ?
[out] 1.3

[in] Also `CC(=O)c1c(C)nc(SSc2nc(C)c(C(C)=O)c(-c3ccc(Cl)cc3)c2C#N)c(C#N)c1-c1ccc(Cl)cc1` ?
[out] -26.2

[in] Also `C=CCNC(=S)Nc1ccc(OC(=O)NC(C)(C)C)cc1` ?
[out] 25.3
